Below, each entry is listed alongside its reported remaining activity at 10 µM.
molecular target: CLK2 (Homo sapiens); assay: Kinase selectivity, % remaining activity; format: biochemical; conditions: 10 μM compound, 10 μM ATP, duplicate, read-out: % of remaining activity (relative to DMSO)
Sequence (P49760 whole entry): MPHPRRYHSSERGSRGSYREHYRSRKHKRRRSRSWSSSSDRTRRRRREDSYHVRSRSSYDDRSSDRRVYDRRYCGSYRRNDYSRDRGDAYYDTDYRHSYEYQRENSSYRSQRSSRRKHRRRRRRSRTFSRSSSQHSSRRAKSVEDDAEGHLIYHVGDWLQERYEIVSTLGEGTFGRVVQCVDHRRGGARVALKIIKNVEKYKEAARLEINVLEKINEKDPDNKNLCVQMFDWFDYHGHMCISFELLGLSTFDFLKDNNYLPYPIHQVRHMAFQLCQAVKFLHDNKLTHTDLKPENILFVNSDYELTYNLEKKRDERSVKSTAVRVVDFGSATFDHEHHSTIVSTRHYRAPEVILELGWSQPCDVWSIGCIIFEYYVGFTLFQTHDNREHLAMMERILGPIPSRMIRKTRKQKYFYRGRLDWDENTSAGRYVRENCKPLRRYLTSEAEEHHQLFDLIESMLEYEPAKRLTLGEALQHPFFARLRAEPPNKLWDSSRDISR
// note: answer is a bare numeric in %

Item Smiles: COc1ccc(C=C2N=C(c3cccs3)OC2=O)cc1
Measurement Unit: %
remaining activity at 10 µM: 50.6

Item Smiles: CNc1c(C(N)=O)c2ccccn2c1C(=O)c1ccc(F)cc1
Measurement Unit: %
remaining activity at 10 µM: 100

Item Smiles: NC(=O)c1c(N)c(C(=O)c2ccc(F)cc2)n2ccccc12
Measurement Unit: %
remaining activity at 10 µM: 72.7

Item Smiles: Nc1ncnc2c1c(COc1cccc(Cl)c1)nn2C1CCOCC1
Measurement Unit: %
remaining activity at 10 µM: 105

Next up:
Task: Which remaining activity at 10 µM value belongs to `Nc1ncc(-c2nc3ccccc3o2)c(-c2ccncc2)n1` ?
Result: 96.2

* * *

experiment: Pharmacokinetics in male CD-1 mice; type: in vivo; conditions: mouse; PO 3 mg/kg, plasma, male CD-1 mice; predicted; read-out: Vz/F
Measured Attribute: Vd/F (L/kg)
Numeric only. Scale: L/kg

Task: Please give the measured Vd/F for this molecule: `CNc1c(C(N)=O)c2ccccn2c1C(=O)c1ccc(F)cc1`
Result: 61.4

* * *

test: Pharmacokinetics in male CD-1 mice; assay type: in vivo; conditions: mouse; PO 30 mg/kg, plasma, male CD-1 mice; predicted
Measured Attribute: AUC(0-inf) (ng·h/mL)
Value expressed in ng·h/mL; do not type the unit.

Task: Record request: AUC(0-inf) value, item `CNc1c(C(N)=O)c2ccccn2c1C(=O)c1ccc(F)cc1`
Result: 576

* * *

experiment: Pharmacokinetics in male CD-1 mice; format: in vivo; conditions: male, CD-1, mouse, plasma, po, 30 mg/kg, PO 30 mg/kg, plasma, male CD-1 mice; read-out: AUC0-t
Measured AUC(0-t), listed per entry.
Note: unit ng·h/mL is implicit; provide only the numeric part.

Item Smiles: Nc1ncc(-c2nc3ccccc3o2)c(-c2ccncc2)n1
Measurement Unit: ng·h/mL
Measured: 1210

Would you kindly look at the next entry?
Task: Fill blank: measured AUC(0-t) of the compound `CNc1c(C(N)=O)c2ccccn2c1C(=O)c1ccc(F)cc1` is ____.
Result: 470

* * *

molecular target: PDK1/PDPK1 (Homo sapiens); assay: Kinase selectivity, % remaining activity; type: biochemical; details: 10 μM compound, 10 μM ATP, duplicate, read-out: % of remaining activity (relative to DMSO)
Sequence (O15530 whole entry): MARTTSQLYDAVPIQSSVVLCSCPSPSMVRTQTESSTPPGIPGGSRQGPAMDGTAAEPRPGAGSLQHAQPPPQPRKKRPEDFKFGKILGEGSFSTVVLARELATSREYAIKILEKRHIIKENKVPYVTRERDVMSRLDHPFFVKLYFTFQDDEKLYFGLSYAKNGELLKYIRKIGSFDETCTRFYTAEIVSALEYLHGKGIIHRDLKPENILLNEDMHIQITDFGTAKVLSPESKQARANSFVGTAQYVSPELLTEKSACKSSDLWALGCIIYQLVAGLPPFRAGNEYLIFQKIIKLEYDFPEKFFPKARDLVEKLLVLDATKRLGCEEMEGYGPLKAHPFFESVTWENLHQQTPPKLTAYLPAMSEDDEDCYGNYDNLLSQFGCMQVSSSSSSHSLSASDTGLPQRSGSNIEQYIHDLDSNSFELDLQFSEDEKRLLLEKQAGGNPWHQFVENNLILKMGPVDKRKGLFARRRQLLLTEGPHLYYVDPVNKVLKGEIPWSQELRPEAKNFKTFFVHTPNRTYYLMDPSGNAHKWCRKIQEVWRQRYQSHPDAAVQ
Measured Attribute: remaining activity at 10 µM (%)
Respond numerically; units are % and should not be typed.

Example molecules with recorded remaining activity at 10 µM:
Item Smiles: Nc1ncc(-c2nc3ccccc3o2)c(-c2ccncc2)n1
Measurement Unit: %
Measured: 105

Item Smiles: COc1ccc(C=C2N=C(c3cccs3)OC2=O)cc1
Measurement Unit: %
Measured: 105

Item Smiles: CNc1c(C(N)=O)c2ccccn2c1C(=O)c1ccc(F)cc1
Measurement Unit: %
Measured: 107

Item Smiles: Nc1ncnc2c1c(COc1cccc(Cl)c1)nn2C1CCOCC1
Measurement Unit: %
Measured: 103

Consider the record given below.
Task: For `NC(=O)c1c(N)c(C(=O)c2ccc(F)cc2)n2ccccc12` , what is its reported remaining activity at 10 µM?
Result: 95

* * *

target: CK1g1 (Homo sapiens, UniProt Q9HCP0); assay: Kinase selectivity, % remaining activity; assay type: biochemical; details: 10 μM compound, 10 μM ATP, duplicate, read-out: % of remaining activity (relative to DMSO)
Sequence (Q9HCP0 whole entry): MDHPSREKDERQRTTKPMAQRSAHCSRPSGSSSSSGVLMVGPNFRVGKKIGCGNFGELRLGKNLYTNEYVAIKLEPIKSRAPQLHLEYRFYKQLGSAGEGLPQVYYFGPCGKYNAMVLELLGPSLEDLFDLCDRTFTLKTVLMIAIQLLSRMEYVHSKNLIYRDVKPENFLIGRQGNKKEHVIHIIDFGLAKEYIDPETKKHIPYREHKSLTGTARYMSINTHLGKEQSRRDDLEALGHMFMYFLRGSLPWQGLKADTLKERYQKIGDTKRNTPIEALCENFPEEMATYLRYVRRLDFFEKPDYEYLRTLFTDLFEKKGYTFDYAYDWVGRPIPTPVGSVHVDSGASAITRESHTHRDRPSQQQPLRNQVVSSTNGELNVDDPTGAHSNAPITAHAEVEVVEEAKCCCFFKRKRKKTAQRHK
Measured Attribute: remaining activity at 10 µM (%)
Report as a plain number; the unit % is understood.

// solved cases for remaining activity at 10 µM follow
Item Smiles: COc1ccc(C=C2N=C(c3cccs3)OC2=O)cc1
remaining activity at 10 µM, %: 71.9

Item Smiles: Nc1ncnc2c1c(COc1cccc(Cl)c1)nn2C1CCOCC1
remaining activity at 10 µM, %: 85.1

Item Smiles: Nc1ncc(-c2nc3ccccc3o2)c(-c2ccncc2)n1
remaining activity at 10 µM, %: 99

Item Smiles: NC(=O)c1c(N)c(C(=O)c2ccc(F)cc2)n2ccccc12
remaining activity at 10 µM, %: 104

# evaluate next
Task: Entry `CNc1c(C(N)=O)c2ccccn2c1C(=O)c1ccc(F)cc1` : reported remaining activity at 10 µM = ?
Result: 107

* * *

biological target: CK1e (Homo sapiens, UniProt P49674); assay: Kinase selectivity, % remaining activity; format: biochemical; details: 10 μM compound, 10 μM ATP, duplicate, read-out: % of remaining activity (relative to DMSO)
Sequence (P49674 whole entry): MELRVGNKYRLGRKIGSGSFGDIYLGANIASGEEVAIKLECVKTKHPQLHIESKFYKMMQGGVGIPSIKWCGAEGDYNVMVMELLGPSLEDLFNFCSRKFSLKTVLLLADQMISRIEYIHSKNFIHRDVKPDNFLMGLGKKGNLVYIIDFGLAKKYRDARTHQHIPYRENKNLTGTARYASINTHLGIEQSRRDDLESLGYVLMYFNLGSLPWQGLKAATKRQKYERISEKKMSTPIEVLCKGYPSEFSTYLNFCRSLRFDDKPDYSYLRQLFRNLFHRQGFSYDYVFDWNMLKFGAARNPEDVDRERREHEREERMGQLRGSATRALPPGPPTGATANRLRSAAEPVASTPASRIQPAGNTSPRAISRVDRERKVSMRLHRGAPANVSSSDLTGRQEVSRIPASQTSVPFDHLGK
With a cut-off of 5%, any remaining activity at 10 µM strictly below it is called 1.0; any remaining activity at 10 µM meeting it or above is called 0.0.

Item Smiles: CNc1c(C(N)=O)c2ccccn2c1C(=O)c1ccc(F)cc1
Experimental Target: CK1e (Homo sapiens, UniProt P49674)
Group: 1.0
--
Item Smiles: COc1ccc(C=C2N=C(c3cccs3)OC2=O)cc1
Experimental Target: CK1e (Homo sapiens, UniProt P49674)
Group: 0.0
--
Item Smiles: Nc1ncc(-c2nc3ccccc3o2)c(-c2ccncc2)n1
Experimental Target: CK1e (Homo sapiens, UniProt P49674)
Group: 0.0
--
Item Smiles: Nc1ncnc2c1c(COc1cccc(Cl)c1)nn2C1CCOCC1
Experimental Target: CK1e (Homo sapiens, UniProt P49674)
Group: 1.0

Task: A record lists `NC(=O)c1c(N)c(C(=O)c2ccc(F)cc2)n2ccccc12` . Is its remaining activity at 10 µM below 5%?
Result: 0.0

* * *

target: PKCb2 (Homo sapiens, UniProt P05771); assay: Kinase selectivity, % remaining activity; type: biochemical; details: 10 μM compound, 10 μM ATP, duplicate, read-out: % of remaining activity (relative to DMSO)
Sequence (P05771 1-673 isoform P05771-2): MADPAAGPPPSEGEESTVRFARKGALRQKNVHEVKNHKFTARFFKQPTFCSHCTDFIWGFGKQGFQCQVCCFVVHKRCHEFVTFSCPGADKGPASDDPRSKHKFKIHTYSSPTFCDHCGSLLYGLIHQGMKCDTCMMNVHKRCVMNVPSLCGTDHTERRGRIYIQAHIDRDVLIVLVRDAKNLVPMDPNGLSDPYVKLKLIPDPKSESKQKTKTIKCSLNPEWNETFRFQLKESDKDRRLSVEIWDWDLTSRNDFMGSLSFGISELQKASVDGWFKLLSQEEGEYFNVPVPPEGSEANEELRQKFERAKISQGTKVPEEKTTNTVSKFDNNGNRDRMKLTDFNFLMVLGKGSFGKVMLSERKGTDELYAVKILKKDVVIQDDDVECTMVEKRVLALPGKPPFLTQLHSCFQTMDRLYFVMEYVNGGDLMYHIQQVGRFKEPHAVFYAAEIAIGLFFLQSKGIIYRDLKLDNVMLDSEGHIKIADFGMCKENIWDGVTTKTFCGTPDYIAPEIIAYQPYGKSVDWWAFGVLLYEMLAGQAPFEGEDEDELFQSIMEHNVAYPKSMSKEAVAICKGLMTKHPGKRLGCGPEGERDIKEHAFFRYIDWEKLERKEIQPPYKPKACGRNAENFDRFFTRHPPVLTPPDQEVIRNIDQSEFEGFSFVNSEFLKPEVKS
Measured Attribute: remaining activity at 10 µM (%)
Field: numeric (%). Do not append units.

Item Smiles: COc1ccc(C=C2N=C(c3cccs3)OC2=O)cc1
Measurement Unit: %
remaining activity at 10 µM: 112

Task: Tell me the measured remaining activity at 10 µM of `Nc1ncnc2c1c(COc1cccc(Cl)c1)nn2C1CCOCC1` , please.
Result: 88.5

Task: Value lookup for remaining activity at 10 µM; key = `CNc1c(C(N)=O)c2ccccn2c1C(=O)c1ccc(F)cc1`
Result: 113

Task: Entry under review: `NC(=O)c1c(N)c(C(=O)c2ccc(F)cc2)n2ccccc12` . Reported remaining activity at 10 µM?
Result: 73

Task: Please give the measured remaining activity at 10 µM for this compound: `Nc1ncc(-c2nc3ccccc3o2)c(-c2ccncc2)n1`
Result: 101

* * *

molecular target: TNIK (Homo sapiens, UniProt Q9UKE5); assay: Kinase selectivity, % remaining activity; format: biochemical; settings: 10 μM compound, 10 μM ATP, duplicate, read-out: % of remaining activity (relative to DMSO)
Sequence (Q9UKE5 whole entry): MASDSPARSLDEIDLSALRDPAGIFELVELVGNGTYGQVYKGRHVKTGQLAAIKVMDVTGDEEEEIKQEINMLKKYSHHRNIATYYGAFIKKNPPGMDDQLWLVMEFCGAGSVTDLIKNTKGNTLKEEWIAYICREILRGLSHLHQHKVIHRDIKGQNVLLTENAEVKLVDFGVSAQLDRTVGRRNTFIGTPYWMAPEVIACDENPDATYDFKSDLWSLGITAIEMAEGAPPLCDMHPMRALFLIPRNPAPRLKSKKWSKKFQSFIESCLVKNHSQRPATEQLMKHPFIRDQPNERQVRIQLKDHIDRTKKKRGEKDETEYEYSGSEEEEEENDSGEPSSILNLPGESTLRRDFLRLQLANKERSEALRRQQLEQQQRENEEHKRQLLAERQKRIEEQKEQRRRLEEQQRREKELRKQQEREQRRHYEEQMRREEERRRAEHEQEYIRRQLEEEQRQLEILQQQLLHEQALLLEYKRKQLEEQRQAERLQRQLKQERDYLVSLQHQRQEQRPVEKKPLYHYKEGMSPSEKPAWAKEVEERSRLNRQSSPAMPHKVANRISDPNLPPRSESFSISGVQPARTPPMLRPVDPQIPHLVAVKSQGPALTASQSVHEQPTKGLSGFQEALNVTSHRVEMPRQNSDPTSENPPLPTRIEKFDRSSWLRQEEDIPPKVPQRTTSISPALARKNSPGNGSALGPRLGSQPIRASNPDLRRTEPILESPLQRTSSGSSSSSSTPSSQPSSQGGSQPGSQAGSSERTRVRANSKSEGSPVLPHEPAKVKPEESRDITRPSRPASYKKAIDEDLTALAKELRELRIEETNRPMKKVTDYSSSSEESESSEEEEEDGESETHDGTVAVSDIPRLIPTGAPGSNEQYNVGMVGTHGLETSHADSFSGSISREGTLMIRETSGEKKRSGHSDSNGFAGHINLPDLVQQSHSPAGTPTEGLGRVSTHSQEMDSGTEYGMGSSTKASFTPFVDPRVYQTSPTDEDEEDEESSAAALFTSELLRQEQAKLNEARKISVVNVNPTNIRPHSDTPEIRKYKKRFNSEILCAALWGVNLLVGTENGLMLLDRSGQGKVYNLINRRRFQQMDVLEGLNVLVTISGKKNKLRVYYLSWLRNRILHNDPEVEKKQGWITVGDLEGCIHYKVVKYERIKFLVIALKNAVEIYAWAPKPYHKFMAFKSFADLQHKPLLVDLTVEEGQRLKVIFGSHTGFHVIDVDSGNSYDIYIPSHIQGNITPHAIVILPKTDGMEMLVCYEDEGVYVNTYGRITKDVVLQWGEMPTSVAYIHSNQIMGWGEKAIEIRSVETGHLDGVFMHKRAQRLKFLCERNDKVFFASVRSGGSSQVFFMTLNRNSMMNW
remaining activity at 10 µM for assorted molecules
Record the value in %, omitting the unit from your answer.

Item Smiles: CNc1c(C(N)=O)c2ccccn2c1C(=O)c1ccc(F)cc1
Experimental Target: TNIK (Homo sapiens, UniProt Q9UKE5)
Measurement Unit: %
remaining activity at 10 µM: 94.4

Item Smiles: NC(=O)c1c(N)c(C(=O)c2ccc(F)cc2)n2ccccc12
Experimental Target: TNIK (Homo sapiens, UniProt Q9UKE5)
Measurement Unit: %
remaining activity at 10 µM: 68.5

Item Smiles: COc1ccc(C=C2N=C(c3cccs3)OC2=O)cc1
Experimental Target: TNIK (Homo sapiens, UniProt Q9UKE5)
Measurement Unit: %
remaining activity at 10 µM: 101

Item Smiles: Nc1ncc(-c2nc3ccccc3o2)c(-c2ccncc2)n1
Experimental Target: TNIK (Homo sapiens, UniProt Q9UKE5)
Measurement Unit: %
remaining activity at 10 µM: 74.6

Task: Requested field: remaining activity at 10 µM. Item: `Nc1ncnc2c1c(COc1cccc(Cl)c1)nn2C1CCOCC1`
Result: 89.7

* * *

molecular target: EGFR (Homo sapiens); experiment: Kinase selectivity, % remaining activity; assay type: biochemical; conditions: 10 μM compound, 10 μM ATP, duplicate, read-out: % of remaining activity (relative to DMSO)
With a cut-off of 60%, any remaining activity at 10 µM strictly below it is called Fulfilled; any remaining activity at 10 µM meeting it or above is called Not fulfilled.

Example cases with answers are listed next.
Item Smiles: NC(=O)c1c(N)c(C(=O)c2ccc(F)cc2)n2ccccc12
Group: Fulfilled

Item Smiles: Nc1ncnc2c1c(COc1cccc(Cl)c1)nn2C1CCOCC1
Group: Not fulfilled

Item Smiles: CNc1c(C(N)=O)c2ccccn2c1C(=O)c1ccc(F)cc1
Group: Fulfilled

Item Smiles: COc1ccc(C=C2N=C(c3cccs3)OC2=O)cc1
Group: Not fulfilled

Shift focus to the following entry.
Task: Could you please tell me whether remaining activity at 10 µM recorded for `Nc1ncc(-c2nc3ccccc3o2)c(-c2ccncc2)n1` is less than 60%?
Result: Not fulfilled
